Property: MRT inf; scope: individual molecules
Test: in vivo
Conditions: beagle, dog, po, 2 mg/kg

{"columns": ["molecule", "MRT inf [h]"],
 "data": [
  ["C=CC(=O)Nc1cc(Nc2nccc(-c3cn(C4CC4)c4ccccc34)n2)c(OC)cc1N(C)CCN(C)C", 9.2],
  ["C=CC(=O)Nc1cc(Nc2nccc(-c3cn(C)c4ccccc34)n2)c(OC)cc1N(C)CCN(C)C [AZD-9291, reference compound]", 9]
]}

----------
Target: wild-type EGFR enzyme (Homo sapiens, UniProt P00533)
Sequence (P00533 25-1210): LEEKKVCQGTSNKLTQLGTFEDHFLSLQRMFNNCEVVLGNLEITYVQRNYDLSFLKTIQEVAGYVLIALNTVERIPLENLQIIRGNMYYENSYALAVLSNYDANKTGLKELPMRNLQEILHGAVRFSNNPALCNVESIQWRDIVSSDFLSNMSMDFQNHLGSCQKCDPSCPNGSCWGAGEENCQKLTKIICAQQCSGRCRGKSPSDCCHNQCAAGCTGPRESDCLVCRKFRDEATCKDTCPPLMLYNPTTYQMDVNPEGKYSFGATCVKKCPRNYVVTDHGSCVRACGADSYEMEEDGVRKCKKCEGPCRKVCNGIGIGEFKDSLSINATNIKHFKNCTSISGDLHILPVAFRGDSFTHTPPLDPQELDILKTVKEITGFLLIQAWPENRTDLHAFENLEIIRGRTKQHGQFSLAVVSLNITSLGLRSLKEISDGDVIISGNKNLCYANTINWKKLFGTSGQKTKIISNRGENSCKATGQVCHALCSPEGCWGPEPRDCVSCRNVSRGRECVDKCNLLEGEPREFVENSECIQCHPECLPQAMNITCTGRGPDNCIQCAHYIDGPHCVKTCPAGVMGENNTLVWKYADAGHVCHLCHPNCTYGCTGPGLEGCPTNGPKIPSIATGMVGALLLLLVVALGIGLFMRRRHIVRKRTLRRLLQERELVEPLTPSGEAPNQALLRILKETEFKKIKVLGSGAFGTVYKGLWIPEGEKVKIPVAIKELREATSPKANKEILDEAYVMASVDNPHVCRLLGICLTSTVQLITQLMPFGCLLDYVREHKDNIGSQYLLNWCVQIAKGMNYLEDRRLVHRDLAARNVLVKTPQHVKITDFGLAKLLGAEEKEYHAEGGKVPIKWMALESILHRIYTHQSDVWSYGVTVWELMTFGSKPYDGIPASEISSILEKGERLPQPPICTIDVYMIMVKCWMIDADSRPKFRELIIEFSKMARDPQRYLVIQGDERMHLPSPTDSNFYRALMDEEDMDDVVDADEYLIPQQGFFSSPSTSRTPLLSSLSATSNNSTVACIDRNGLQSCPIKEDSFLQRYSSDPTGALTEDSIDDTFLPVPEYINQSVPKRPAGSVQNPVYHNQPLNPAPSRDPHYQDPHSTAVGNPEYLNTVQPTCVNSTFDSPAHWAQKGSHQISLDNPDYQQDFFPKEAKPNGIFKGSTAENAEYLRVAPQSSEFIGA
Assay: Enzymologic experiment of wild-type (WT) EGFR (TR-FRET)
Format: biochemical
Settings: ATP 0.1 to 5 uM
Property: IC50; scope: individual compounds
parameter: IC50 (nM)

{"columns": ["input_smiles", "experimental_value"],
 "data": [
  ["C=CC(=O)Nc1cc(Nc2nccc(-n3nc(C)c4ccc(OC)cc43)n2)c(OC)cc1N(C)CCN(C)C", 2.21],
  ["C=CC(=O)Nc1cc(Nc2nccc(-n3nc(C)c4cc(OC)c(OC)cc43)n2)c(OC)cc1N(C)CCN(C)C", 34.1],
  ["C=CC(=O)Nc1cc(Nc2ncc(C(F)(F)F)c(-n3cnc4cc(OC)ccc43)n2)c(OC)cc1N(C)CCN(C)C", 378],
  ["C=CC(=O)Nc1cc(Nc2nccc(-n3nc(C4CC4)c4cc(OC)ccc43)n2)c(OC)cc1N(C)CCN(C)C", 1.62],
  ["C=CC(=O)Nc1cc(Nc2nccc(-c3cn(S(=O)(=O)N(C)C)c4ccccc34)n2)c(OC(F)F)cc1N(C)CCN(C)C", 0.4],
  ["C=CC(=O)Nc1cc(Nc2nccc(-n3ncc4cc(OC)ccc43)n2)c(OC)cc1N(C)CCN1CCCC1", 6.31],
  ["C#CCn1cc(-c2ccnc(Nc3cc(NC(=O)C=C)c(N(C)CCN(C)C)cc3OC)n2)c2ccccc21", 8.56],
  ["C=CC(=O)Nc1cc(Nc2ncc(Cl)c(-c3cn(C)c4cc(OC)ccc34)n2)c(OC)cc1N(C)CCN(C)C", 1],
  ["C=CC(=O)Nc1cc(Nc2ncc(Cl)c(-n3cnc4cc(OC)ccc43)n2)c(OC)cc1N(C)CCN(C)C", 14.9],
  ["C=CC(=O)Nc1cc(Nc2nccc(-n3ncc4c(OC)cccc43)n2)c(OC)cc1N(C)CCN1CCCC1", 4.62],
  ["C=CC(=O)Nc1cc(Nc2ncc(Cl)c(-n3nc(C4CC4)c4cc(OC)ccc43)n2)c(OC)cc1N(C)CCN(C)C", 3.94],
  ["C=CC(=O)Nc1cc(Nc2nccc(-c3cn(C4CC4)c4ccccc34)n2)c(OC)cc1N(C)CCN1CCCC1", 27.2],
  ["C=CC(=O)Nc1cc(Nc2nccc(-c3cn(C)c4cc(C5CC5)ccc34)n2)c(OC)cc1N(C)CCN(C)C", 7.44],
  ["C=CC(=O)Nc1cc(Nc2nccc(-c3cn(C)c4cc(C#N)ccc34)n2)c(OC(F)F)cc1N(C)CCN(C)C", 2.12],
  ["COc1cc(N(C)CCN(C)C)c(NC(=O)/C=C/CN(C)C)cc1Nc1nccc(-c2cn(C3CC3)c3ccccc23)n1", 8.4],
  ["C=CC(=O)Nc1cc(Nc2ncc(C(F)(F)F)c(-n3ncc4cc(OC)ccc43)n2)c(OC)cc1N(C)CCN(C)C", 6.3],
  ["C=CC(=O)Nc1cc(Nc2nccc(-n3cnc4ccc(OC)cc43)n2)c(OC)cc1N(C)CCN1CCCC1", 9.16],
  ["C=CC(=O)Nc1cc(Nc2nccc(-c3c[nH]c4c(C5CC5)cccc34)n2)c(OC)cc1N(C)CCN(C)C", 0.4],
  ["C=CC(=O)Nc1cc(Nc2nccc(-n3nc(OC)c4cc(Cl)ccc43)n2)c(OC)cc1N(C)CCN(C)C", 9.65],
  ["C=CC(=O)Nc1cc(Nc2nccc(-c3cn(C)c4cc(OC)ccc34)n2)c(OC(F)F)cc1N(C)CCN(C)C", 6.41],
  ["C=CC(=O)Nc1cc(Nc2ncc(C(F)(F)F)c(-n3nc(CC)c4cc(C#N)ccc43)n2)c(OC)cc1N(C)CCN(C)C", 43.3],
  ["C=CC(=O)Nc1cc(Nc2nccc(-n3cnc4cc(OC)ccc43)n2)c(OC)cc1N(C)CCN1CCCC1", 4.92],
  ["C=CC(=O)Nc1cc(Nc2nccc(-n3cnc4ccc(OC)cc43)n2)c(OC)cc1N(C)CCN(C)C", 2.03],
  ["C=CC(=O)Nc1cc(Nc2ncc(C(F)(F)F)c(-n3nc(C4CC4)c4cc(OC)ccc43)n2)c(OC)cc1N(C)CCN(C)C", 42],
  ["C=CC(=O)Nc1cc(Nc2nccc(-n3cnc4ccccc43)n2)c(OC)cc1N(C)CCN(C)C", 3.66],
  ["C=CC(=O)Nc1cc(Nc2nccc(-c3cn4c5c(cccc35)CCC4)n2)c(OC)cc1N(C)CCN(C)C", 13],
  ["C=CC(=O)Nc1cc(Nc2ncc(Cl)c(-n3ncc4cc(C#N)ccc43)n2)c(OC)cc1N(C)CCN(C)C", 14.5],
  ["C=CC(=O)Nc1cc(Nc2ncc(Cl)c(-n3ncc4cc(OC)ccc43)n2)c(OC)cc1N(C)CCN(C)C", 2.52]
]}
